Recorded values, source patent US20220195015A1.

The entries below come with measured EC50 values attached.
Measurement target: SARS-CoV-2 receptor binding domain (RBD), wild type (SARS-CoV-2, UniProt P0DTC2 319-539)
Assay explanation: ELISA, RBD protein coated, mAb titrated

Binder	EC50
C522 (antibody, V domains shown) VH: EVQLVESGGGLIQPGGSLRLSCAASEFIVSRNYMSWVRQAPGKGLEWVSVIYSGGSTFYADSVKGRFTISRDESKNTLYLQMNSLRAEDTAIYYCARDRGGGILDYWGQGTLVTVS VL: DIQMTQSPSSLSASVGDRVTITCQASQDINIFLNWYQQKPGKAPKLLIYDASSLETGVPSRFSGSGSGTDFTFTISSLQPEDFATYYCQQYGNLPKYTFGQGTKLEIK	0.93 ng/mL
C518 (antibody, V domains shown) VH: EVQLVESGGGLIQPGGSLRLSCAASGITVSSNYMSWVRQAPGKGLEWVSVMYAGGSSFYADSVKGRFTISRDNSKNTLYLQMNSLRVEDTAVYYCARDLIALGVDVWGQGTTVTVSS VL: DIQLTQSPSFLSASVGDRVTITCRASQGISSYLAWYQQKPGKAPKLLIYAASTLQSGVPSRFSGSGSGTEFTLTISSLQPEDFATYYCQLLNSYPMCSFGQGTKLEIK	1.13 ng/mL
